Readings of inhibition for the listed molecules
# methodNotes: TLR3 IRF3 reporter activation blockers – cell-based, poly I:C stimulus, luciferase, 10K MLSCN set, primary screen (AID 602277)
# testConditions: HEK293-TLR3 RL24 IRF3 luciferase reporter, at 10 µM, stronger effect = higher value
Calls of active or inactive are those of the source.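 Rule for the calls: active = inhibition of the reporter signal at or above 50%; inactive = inhibition below 50%.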

> print(dat)
                                   molecule        assayresult
1  CCCC1O[C@@H]2C[C@H]3[C@@H]4CCC5=CC(=O)C=C[C@]5(C)[C@H]4[C@@H](O)C[C@]3(C)[C@]2(C(=O)CO)O1 (stereo not given in full)     58.3% (active)
2  Cc1cc2c(s1)c1cnn(CC(=O)NCCc3ccccc3)c(=O)c1n2C  -1.81% (inactive)
3  Cn1c(=O)c2ncn(CC(=O)NCCOc3ccccc3)c2n(C)c1=O   14.3% (inactive)
4  COC(=O)c1ccc2c(=O)n(Cc3ccco3)c(SCC(=O)Nc3ccc(C)c(Cl)c3)nc2c1   28.2% (inactive)

Here's the next entry for you.
Input COc1ccccc1C(O)P(=O)(OC(C)C)c1ccc(N(C)C)cc1 (stereo not given) . Output inhibition: 11% (inactive)
